Biological target: Thermolysin (Bacillus thermoproteolyticus)
Sequence (P00800 whole entry): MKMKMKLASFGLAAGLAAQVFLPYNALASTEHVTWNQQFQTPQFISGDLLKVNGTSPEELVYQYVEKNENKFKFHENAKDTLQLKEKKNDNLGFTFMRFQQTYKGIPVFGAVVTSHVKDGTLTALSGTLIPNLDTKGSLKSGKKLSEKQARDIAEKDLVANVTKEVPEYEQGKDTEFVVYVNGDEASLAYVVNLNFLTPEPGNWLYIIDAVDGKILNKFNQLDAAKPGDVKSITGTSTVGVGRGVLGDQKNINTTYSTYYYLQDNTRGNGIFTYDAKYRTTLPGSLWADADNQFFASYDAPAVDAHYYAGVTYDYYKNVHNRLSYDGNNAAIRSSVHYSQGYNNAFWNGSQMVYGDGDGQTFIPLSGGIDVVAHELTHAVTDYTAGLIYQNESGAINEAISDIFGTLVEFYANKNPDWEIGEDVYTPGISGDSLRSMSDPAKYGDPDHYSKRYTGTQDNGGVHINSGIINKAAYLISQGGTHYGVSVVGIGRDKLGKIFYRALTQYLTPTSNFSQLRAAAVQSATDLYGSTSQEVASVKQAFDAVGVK
Assay: Inhibitory activity against thermolysin
observable: Ki (µM)

[[record]]
line_notation = "CC(C)C[C@H](CN(O)C=O)C(=O)NC(=O)[C@H](C)N"
observable = "Ki"
test_value = 10.6

[[record]]
line_notation = "CC(C)C[C@H](CN(O)C=O)C(N)=O"
observable = "Ki"
test_value = 20.6


[1] CC(C)C[C@H](CN(O)C=O)C(=O)NC(=O)[C@@H](N)Cc1ccccc1
[2] CC(C)C[C@H](CN(O)C=O)C(=O)NC(=O)[C@@H](C)N
[3] CC(C)C[C@H](CN(O)C=O)C(=O)NC(=O)CN
Ask: Kindly order the items shown according to Ki, from the highest value down. Put the labels in the requested order and write them down.
Result: 2, 3, 1
(2: 16.6 µM, 3: 10.9 µM, 1: 2.4 µM)

* * *

experiment: Ratio of Km to that of Kcat against thermolysin
observable: Km/Kcat (µM/s)

[[record]]
line_notation = "CC(C)C[C@H](CN(O)C=O)C(N)=O"
test_value = 196


[A] CC(C)C[C@H](CN(O)C=O)C(=O)NC(=O)[C@@H](N)Cc1ccccc1
[B] CC(C)C[C@H](CN(O)C=O)C(=O)NC(=O)[C@H](C)N
[C] CC(C)C[C@H](CN(O)C=O)C(=O)NC(=O)CN
[D] CC(C)C[C@H](CN(O)C=O)C(=O)NC(=O)[C@@H](C)N
Ask: Please produce an ascending ranking of these molecules based on Km/Kcat. Put the labels in the requested order and write them down.
Result: B, A, C, D

* * *

target: Thermolysin (Bacillus thermoproteolyticus, UniProt P00800); test: Inhibitory activity against thermolysin using N-[3-(2-furyl)acryloyl]-Gly-l-leucineamide (FA-Gly-l-Leu-NH2) as substrate
observable: Ki (µM)

Guide cases for Ki, answers given:
[[record]]
line_notation = "CC(C)C[C@H](CN(O)C=O)C(=O)NC(=O)[C@H](C)N"
system = "Thermolysin (Bacillus thermoproteolyticus, UniProt P00800)"
unit_text = "µM"
test_value = 2.49

[[record]]
line_notation = "CC(C)C[C@H](CN(O)C=O)C(=O)NC(=O)[C@@H](C)N"
system = "Thermolysin (Bacillus thermoproteolyticus, UniProt P00800)"
unit_text = "µM"
test_value = 383

[[record]]
line_notation = "CC(C)C[C@H](CN(O)C=O)C(=O)NC(=O)CN"
system = "Thermolysin (Bacillus thermoproteolyticus, UniProt P00800)"
unit_text = "µM"
test_value = 14.7


[A] CC(C)C[C@H](CN(O)C=O)C(N)=O
[B] CC(C)C[C@H](CN(O)C=O)C(=O)NC(=O)[C@@H](N)Cc1ccccc1
Ask: Please indicate which entry, A or B , has the lower recorded Ki value. # answer = label of selected item
Result: B
(B: 1.84 µM, A: 52.8 µM)
